The following molecules are listed with their measured MIC values.
test system: Proteus vulgaris; assay: Antimicrobial activity against Proteus vulgaris ATCC 13315 after 24 hr by broth dilution method; assay type: functional; details: ATCC 13315, 24 h
Please give a number only; it is taken to be in µg/mL.

Below: 4 molecules and their reported MIC.
molecule	test_target	MIC [µg/mL]
O=C1Nc2ccc(Cl)cc2/C1=N/N1C(=O)CSC1c1ccco1 (stereo not drawn)	Proteus vulgaris	75
O=C1Nc2ccc(Cl)cc2/C1=N/N1C(=O)C(Cl)C1c1ccc(Cl)cc1 (stereo not drawn)	Proteus vulgaris	9.37
O=C1Nc2ccc(Cl)cc2/C1=N/N1C(=O)C(Cl)C1c1ccc([N+](=O)[O-])cc1 (stereo not drawn)	Proteus vulgaris	9.37
O=C1Nc2ccc(Cl)cc2/C1=N/N1C(=O)CSC1c1ccccc1 (stereo not drawn)	Proteus vulgaris	75

*Q* Could you share which MIC value was measured for CN(C)c1ccc(C2SCC(=O)N2/N=C2\C(=O)Nc3ccc(Cl)cc32)cc1 (stereo not drawn) ?
*A* 18.8

*Q* Could you share which MIC value was measured for O=C1Nc2ccc(Cl)cc2/C1=N/N1C(=O)C(Cl)C1c1ccc(F)cc1 (stereo not drawn) ?
*A* 18.8

*Q* Could you share which MIC value was measured for COc1cccc(C2C(Cl)C(=O)N2/N=C2\C(=O)Nc3ccc(Cl)cc32)c1 (stereo not drawn) ?
*A* 75

*Q* Could you share which MIC value was measured for O=C1Nc2ccc(Cl)cc2/C1=N/N1C(=O)C(Cl)C1c1ccco1 (stereo not drawn) ?
*A* 37.5

* * *

The following molecules are listed with their measured MIC values.
system: Bacillus pumilus; test: Antimicrobial activity against Bacillus pumilus ATCC 14884 after 24 hr by broth dilution method; format: functional; conditions: ATCC 14884, 24 h
Please give a number only; it is taken to be in µg/mL.

Below: 2 molecules and their reported MIC.
molecule	observable	number
O=C1Nc2ccc(Cl)cc2/C1=N/N1C(=O)C(Cl)C1c1ccc(F)cc1 (stereo not given)	MIC	18.8
O=C1Nc2ccc(Cl)cc2/C1=N/N1C(=O)CSC1c1ccc([N+](=O)[O-])cc1 (stereo not given)	MIC	18.8

*Q* Could you share which MIC value was measured for O=C1Nc2ccc(Cl)cc2/C1=N/N1C(=O)CSC1c1ccccc1 (stereo not given) ?
*A* 75

*Q* Could you share which MIC value was measured for COc1cccc(C2SCC(=O)N2/N=C2\C(=O)Nc3ccc(Cl)cc32)c1 (stereo not given) ?
*A* 75

*Q* Could you share which MIC value was measured for O=C1Nc2ccc(Cl)cc2/C1=N/N1C(=O)C(Cl)C1c1ccc(Cl)cc1 (stereo not given) ?
*A* 9.37

* * *

system: Candida albicans; assay: Antimicrobial activity against Candida albicans ATCC 10231 after 24 hr by broth dilution method; assay type: functional; conditions: ATCC 10231, 24 h
observable: MIC (µg/mL)
Please give a number only; it is taken to be in µg/mL.

molecule	MIC, µg/mL
O=C1Nc2ccc(Cl)cc2/C1=N/N1C(=O)C(Cl)C1c1ccccc1Cl (stereo not given)	75
O=C1Nc2ccc(Cl)cc2/C1=N/N1C(=O)C(Cl)C1c1ccc(F)cc1 (stereo not given)	4.68
COc1ccc(C2SCC(=O)N2/N=C2\C(=O)Nc3ccc(Cl)cc32)cc1 (stereo not given)	4.68
O=C1Nc2ccc(Cl)cc2/C1=N/N1C(=O)CSC1c1ccccc1O (stereo not given)	75
O=C1Nc2ccc(Cl)cc2/C1=N/N1C(=O)C(Cl)C1c1ccc(O)cc1 (stereo not given)	4.68

Switching to the query record.
*Q* Provide value of MIC for this record tested with Candida albicans: CN(C)c1ccc(C2SCC(=O)N2/N=C2\C(=O)Nc3ccc(Cl)cc32)cc1 (stereo not given)
*A* 9.37

Values were extracted from ChEMBL document CHEMBL3046063.
